target: Pseudomonas aeruginosa LpxC enzyme (Pseudomonas aeruginosa (strain ATCC 15692 / DSM 22644 / CIP 104116 / JCM 14847 / LMG 12228 / 1C / PRS 101 / PAO1)); assay: IC50 Assay, LpxC Enzyme from P. aeruginosa (PA LpxC Enzyme IC50); type: biochemical; conditions: P. aeruginosa LpxC enzyme; read-out: PA LpxC enzyeme IC50
recorded-endpoint: pIC50
Recall that pIC50 is obtained by taking minus log10 of the concentration measured in molar.

Please review the entries below; each comes with its answer.
{"compound": "C[C@@](CCc1ccc(-c2cc3ccccc3[nH]2)cc1)(C(=O)NO)S(C)(=O)=O [Example 218]", "pIC50": 10.47}
{"compound": "CC(CCc1ccc(-c2ccc(CO)c(F)c2)cc1)(C(=O)NO)S(C)(=O)=O (centres unmarked) [Example 123]", "pIC50": 9.31}
{"compound": "C[C@@](CCc1ccc(-c2ccc(OCC(=O)N3CCC(O)CC3)cc2)cc1)(C(=O)NO)S(C)(=O)=O [Example 221]", "pIC50": 9.27}
{"compound": "CC(CCc1ccc(-c2ccc3c(c2)OCO3)cc1)(C(=O)NO)S(C)(=O)=O (centres unmarked) [Example 176]", "pIC50": 10.52}
{"compound": "CC(CCc1ccc(-c2ccc3ncccc3c2)c(F)c1)(C(=O)NO)S(C)(=O)=O (centres unmarked) [Example 195]", "pIC50": 9.13}

### Prompt Would you kindly share the measured pIC50 for CC(CCc1ccc(-c2ccsc2)cc1)(C(=O)NO)S(C)(=O)=O (centres unmarked) [Example 77] ?
### Response 9.00

### Prompt For the compound CC(=O)c1ccc(-c2ccc(CCC(C)(C(=O)NO)S(C)(=O)=O)cc2)cc1F (centres unmarked) [Example 184] , what pIC50 is on record?
### Response 9.81

### Prompt Please report the recorded pIC50 for CC(=O)c1ccc(-c2ccc(CCC(C)(C(=O)NO)S(C)(=O)=O)cc2)cc1 (centres unmarked) [Example 108] .
### Response 9.75

### Prompt Bench note: what pIC50 did CC(CCc1ccc(-c2cc(F)c(C#N)c(F)c2)cc1)(C(=O)NO)S(C)(=O)=O (centres unmarked) [Example 127] show?
### Response 9.82

### Prompt Need pIC50 of CC(CCc1ccc(-c2ccc(O)cc2)cc1F)(C(=O)NO)S(C)(=O)=O (centres unmarked) [Example 178] , thanks.
### Response 10.23

### Prompt Quick one: pIC50 for CC(CCc1ccc(-c2ccc(O)cc2)c(F)c1)(C(=O)NO)S(C)(=O)=O (centres unmarked) [Example 177] ?
### Response 9.51

Each recorded value in this set is attributed to patent US8853258B2.
